Kindly state Emax for each of the entries shown.
# Tested on: guinea pig left atria
# testDetails: Positive inotropic effect in guinea pig left atria
# cond: Cavia porcellus; ratio of the maximum effect of the test compound to that of Bay K8644; read-out: Intrinsic Activity
Answers are plain numbers, in %.

Check out these entries, answers already filled in.
>>> reading("COc1ccccc1N1CCN(CCOC(=O)C2=C(C)NC(C)=C([N+](=O)[O-])C2c2ccco2)CC1 (stereo not shown) [Example 59]")
98
>>> reading("CC1=C(C(=O)OCCN2CCN(c3ncccn3)CC2)C(c2ccco2)C([N+](=O)[O-])=C(C)N1 (stereo not shown) [Example 60]")
140
>>> reading("COC(=O)C1=C(C)NC(C)=C([N+](=O)[O-])C1c1ccccc1C(F)(F)F (stereo not shown) [Bay K8644]")
100
>>> reading("COc1ccccc1N1CCN(CCCCOC(=O)C2=C(C)NC(C)=C([N+](=O)[O-])C2c2ccoc2)CC1 (stereo not shown) [Example 67]")
86

The following compounds each have a reported value; give each one's Emax.
1. COC(=O)C1=C(C)NC(C)=C([N+](=O)[O-])C1c1ccccc1OCCCCCN1CCC(c2ccccc2)CC1 (stereo not shown) [Example 6]
2. COc1ccccc1N1CCN(CCOC(=O)C2=C(C)NC(C)=C([N+](=O)[O-])C2c2cccc3nonc23)CC1 (stereo not shown) [Example 75]
3. CC1=C(C(=O)OCCN2CCN(c3ncccn3)CC2)C(c2ccsc2)C([N+](=O)[O-])=C(C)N1 (stereo not shown) [Example 66]
4. CC1=C(C(=O)OCCN2CCN(c3ncccn3)CC2)C(c2cccs2)C([N+](=O)[O-])=C(C)N1 (stereo not shown) [Example 73]

1: 207; 2: 82; 3: 210; 4: 84

The following compounds each have a reported value; give each one's Emax.
1. COc1ccccc1N1CCN(CCCCOC(=O)C2=C(C)NC(C)=C([N+](=O)[O-])C2c2cccs2)CC1 (stereo not shown) [Example 63]
2. CC1=C(C(=O)OCCCCN2CCN(c3ncccn3)CC2)C(c2cccnc2)C([N+](=O)[O-])=C(C)N1 (stereo not shown) [Example 53]
3. COc1ccccc1N1CCN(CCOC(=O)C2=C(C)NC(C)=C([N+](=O)[O-])C2c2ccsc2)CC1 (stereo not shown) [Example 65]
4. COc1ccccc1N1CCN(CCCCOC(=O)C2=C(C)NC(C)=C([N+](=O)[O-])C2c2cccn2C)CC1 (stereo not shown) [Example 57]

1: 75; 2: 189; 3: 225; 4: 110

* * *

# assayedTarget: Ca^2+ channel (Rattus norvegicus, UniProt P22002)
# Construct: rat cardiac microsomes (source of Ca^2+ channels)
# Sequence (P22002 whole entry, other chains not shown): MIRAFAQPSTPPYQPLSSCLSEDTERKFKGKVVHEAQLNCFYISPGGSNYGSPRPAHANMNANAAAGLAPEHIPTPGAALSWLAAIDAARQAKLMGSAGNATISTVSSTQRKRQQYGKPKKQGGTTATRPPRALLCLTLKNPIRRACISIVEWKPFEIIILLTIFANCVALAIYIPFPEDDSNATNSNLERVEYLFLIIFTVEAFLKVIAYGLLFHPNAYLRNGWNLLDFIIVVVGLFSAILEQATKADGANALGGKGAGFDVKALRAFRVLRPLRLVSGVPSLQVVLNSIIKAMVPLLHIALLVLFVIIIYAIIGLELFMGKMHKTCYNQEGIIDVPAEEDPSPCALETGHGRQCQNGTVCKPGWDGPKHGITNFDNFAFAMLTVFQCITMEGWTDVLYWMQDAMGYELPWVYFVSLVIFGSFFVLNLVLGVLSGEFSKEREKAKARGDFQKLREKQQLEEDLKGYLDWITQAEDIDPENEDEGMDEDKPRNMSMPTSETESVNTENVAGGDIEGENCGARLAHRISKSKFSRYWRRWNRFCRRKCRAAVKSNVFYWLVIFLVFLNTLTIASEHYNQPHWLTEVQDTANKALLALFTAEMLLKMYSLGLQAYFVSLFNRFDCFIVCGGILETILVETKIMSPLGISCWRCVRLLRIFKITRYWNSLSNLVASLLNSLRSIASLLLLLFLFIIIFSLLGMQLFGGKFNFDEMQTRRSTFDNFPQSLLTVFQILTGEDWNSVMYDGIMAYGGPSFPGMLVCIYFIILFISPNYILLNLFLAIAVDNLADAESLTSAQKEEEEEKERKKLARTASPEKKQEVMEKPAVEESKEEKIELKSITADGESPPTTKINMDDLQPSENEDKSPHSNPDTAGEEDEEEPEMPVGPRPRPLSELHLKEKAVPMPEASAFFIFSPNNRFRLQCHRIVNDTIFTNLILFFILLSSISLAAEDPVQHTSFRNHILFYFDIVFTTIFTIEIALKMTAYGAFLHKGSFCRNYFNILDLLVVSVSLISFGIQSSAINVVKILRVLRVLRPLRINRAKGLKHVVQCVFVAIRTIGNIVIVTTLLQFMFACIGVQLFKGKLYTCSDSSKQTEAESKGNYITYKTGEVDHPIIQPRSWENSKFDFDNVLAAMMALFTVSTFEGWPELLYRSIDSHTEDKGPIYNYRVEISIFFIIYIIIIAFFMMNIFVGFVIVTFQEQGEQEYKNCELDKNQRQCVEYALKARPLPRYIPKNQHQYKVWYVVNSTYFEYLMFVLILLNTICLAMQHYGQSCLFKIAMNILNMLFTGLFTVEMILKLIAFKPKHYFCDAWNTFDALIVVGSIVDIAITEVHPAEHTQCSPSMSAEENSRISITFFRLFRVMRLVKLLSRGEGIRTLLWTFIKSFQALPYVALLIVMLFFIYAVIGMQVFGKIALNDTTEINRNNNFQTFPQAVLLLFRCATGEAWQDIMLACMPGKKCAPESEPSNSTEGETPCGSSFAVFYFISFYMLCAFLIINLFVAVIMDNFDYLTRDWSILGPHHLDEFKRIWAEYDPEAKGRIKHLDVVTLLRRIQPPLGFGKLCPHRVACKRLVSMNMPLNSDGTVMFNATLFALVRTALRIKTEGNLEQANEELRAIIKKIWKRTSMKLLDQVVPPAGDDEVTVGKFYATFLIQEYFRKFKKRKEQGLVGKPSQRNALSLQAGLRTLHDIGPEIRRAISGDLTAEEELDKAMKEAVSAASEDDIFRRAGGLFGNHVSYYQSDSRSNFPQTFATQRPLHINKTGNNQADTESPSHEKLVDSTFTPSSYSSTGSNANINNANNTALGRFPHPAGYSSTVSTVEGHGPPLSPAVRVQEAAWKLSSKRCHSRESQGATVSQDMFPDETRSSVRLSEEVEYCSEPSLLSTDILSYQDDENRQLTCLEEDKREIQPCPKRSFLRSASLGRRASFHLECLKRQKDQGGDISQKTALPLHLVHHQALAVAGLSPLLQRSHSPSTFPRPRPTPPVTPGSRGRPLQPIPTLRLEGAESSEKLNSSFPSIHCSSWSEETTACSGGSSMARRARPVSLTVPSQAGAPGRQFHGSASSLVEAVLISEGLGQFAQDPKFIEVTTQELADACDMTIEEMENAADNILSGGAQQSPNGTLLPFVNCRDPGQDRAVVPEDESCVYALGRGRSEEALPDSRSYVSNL
# Sequence (P54290 25-944 partner limits assumed, other chains not shown): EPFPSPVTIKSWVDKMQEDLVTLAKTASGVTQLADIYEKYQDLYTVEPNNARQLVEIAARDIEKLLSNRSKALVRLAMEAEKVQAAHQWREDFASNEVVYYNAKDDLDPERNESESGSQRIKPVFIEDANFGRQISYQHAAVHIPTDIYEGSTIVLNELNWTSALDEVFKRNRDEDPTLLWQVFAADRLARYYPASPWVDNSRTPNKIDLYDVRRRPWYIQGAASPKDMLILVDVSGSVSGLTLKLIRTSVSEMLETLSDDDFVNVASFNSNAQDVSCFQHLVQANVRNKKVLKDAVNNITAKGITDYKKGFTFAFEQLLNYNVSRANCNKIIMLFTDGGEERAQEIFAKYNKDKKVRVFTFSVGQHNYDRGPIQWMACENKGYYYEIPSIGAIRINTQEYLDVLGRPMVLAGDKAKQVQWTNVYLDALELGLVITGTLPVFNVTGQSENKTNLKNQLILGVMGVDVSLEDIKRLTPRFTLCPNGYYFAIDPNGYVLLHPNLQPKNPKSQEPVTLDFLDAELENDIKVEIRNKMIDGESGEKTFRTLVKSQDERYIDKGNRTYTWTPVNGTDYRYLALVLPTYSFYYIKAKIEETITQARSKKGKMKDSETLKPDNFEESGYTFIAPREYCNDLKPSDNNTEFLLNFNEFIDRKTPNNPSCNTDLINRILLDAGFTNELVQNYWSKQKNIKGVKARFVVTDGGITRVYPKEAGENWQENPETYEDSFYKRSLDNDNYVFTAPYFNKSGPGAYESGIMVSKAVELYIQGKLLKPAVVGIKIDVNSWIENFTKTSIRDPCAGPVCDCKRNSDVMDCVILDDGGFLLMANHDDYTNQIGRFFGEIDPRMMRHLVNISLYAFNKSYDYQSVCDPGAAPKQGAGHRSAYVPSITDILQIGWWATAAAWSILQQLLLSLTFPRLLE
# Sequence (P54290 945-1091 partner limits assumed, other chains not shown): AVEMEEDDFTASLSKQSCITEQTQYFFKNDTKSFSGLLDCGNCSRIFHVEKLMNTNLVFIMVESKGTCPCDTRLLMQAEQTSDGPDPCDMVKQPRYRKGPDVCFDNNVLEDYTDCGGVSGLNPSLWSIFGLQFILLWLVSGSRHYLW
# testDetails: [3H]-Nitrendipine binding assay (affinity for calcium channels)
# cond: rat cardiac microsomes; 0.5 nM [3H]-nitrendipine, 60 min, 25° C.
Kindly state pIC50 for each of the entries shown.
Numbers only, as −log10 of the molar value.

Check out these entries, answers already filled in.
>>> reading("CC1=C(C(=O)OCCN2CCN(c3ncccn3)CC2)C(c2cccs2)C([N+](=O)[O-])=C(C)N1 (centres unmarked) [Example 73]")
5.62
>>> reading("CC1=C(C(=O)OCCN2CCN(c3ncccn3)CC2)C(c2cccc3nonc23)C([N+](=O)[O-])=C(C)N1 (centres unmarked) [Example 76]")
7.07
>>> reading("COc1ccccc1N1CCN(CCCCOC(=O)C2=C(C)NC(C)=C([N+](=O)[O-])C2c2cccn2C)CC1 (centres unmarked) [Example 57]")
5.89

The following molecules each have a reported value; give each one's pIC50.
1. COc1ccccc1N1CCN(CCOC(=O)C2=C(C)NC(C)=C([N+](=O)[O-])C2c2cccc3nonc23)CC1 (centres unmarked) [Example 75]
2. CC1=C(C(=O)OCCN2CCN(c3ncccn3)CC2)C(c2cccn2C)C([N+](=O)[O-])=C(C)N1 (centres unmarked) [Example 78]
3. COC(=O)C1=C(C)NC(C)=C([N+](=O)[O-])C1c1ccccc1OCCCCCN1CCN(c2ccc(Cl)nn2)CC1 (centres unmarked) [Example 7]
4. CC1=C(C(=O)OCCCCN2CCN(c3ncccn3)CC2)C(c2cccn2C)C([N+](=O)[O-])=C(C)N1 (centres unmarked) [Example 58]
5. COc1ccccc1N1CCN(CCCCOC(=O)C2=C(C)NC(C)=C([N+](=O)[O-])C2c2cccnc2)CC1 (centres unmarked) [Example 52]
6. COC(=O)C1=C(C)NC(C)=C([N+](=O)[O-])C1c1ccccc1S(=O)(=O)CCCCN1CCN(c2ccccc2OC)CC1 (centres unmarked) [Example 3]

7.07
5.77
6.19
5.74
5.41
6.62

The following molecules each have a reported value; give each one's pIC50.
1. CC1=C(C(=O)OCCN2CCN(c3ncccn3)CC2)C(c2ccoc2)C([N+](=O)[O-])=C(C)N1 (centres unmarked) [Example 56]
2. COc1ccccc1N1CCN(CCCCOC(=O)C2=C(C)NC(C)=C([N+](=O)[O-])C2c2ccsc2)CC1 (centres unmarked) [Example 71]

1: 5.37; 2: 5.77

The following molecules each have a reported value; give each one's pIC50.
1. COc1ccccc1N1CCN(CCCCOC(=O)C2=C(C)NC(C)=C([N+](=O)[O-])C2c2cccc3nonc23)CC1 (centres unmarked) [Example 51]
2. COc1ccccc1N1CCN(CCOC(=O)C2=C(C)NC(C)=C([N+](=O)[O-])C2c2cccnc2)CC1 (centres unmarked) [Example 61]
3. COC(=O)C1=C(C)NC(C)=C([N+](=O)[O-])C1c1ccccc1OCCCCCN1CCN(C(=O)c2ccco2)CC1 (centres unmarked) [Example 5]

1: 6.96; 2: 5.89; 3: 6.17

* * *

Kindly state pIC50 for each of the entries shown.
# assayedTarget: Ca^2+ channel (Rattus norvegicus, UniProt P22002)
# Construct: rat cardiac microsomes (source of Ca^2+ channels)
# testDetails: [3H]-Nitrendipine binding assay (affinity for calcium channels)
# cond: rat cardiac microsomes; 0.5 nM [3H]-nitrendipine, 60 min, 25° C.
One number for each entry, as −log10 of the molar value.

Check out these entries, answers already filled in.
>>> reading("COc1ccccc1N1CCN(CCCCOC(=O)C2=C(C)NC(C)=C([N+](=O)[O-])C2c2ccco2)CC1 (centres unmarked)")
5.70
>>> reading("COC(=O)C1=C(C)NC(C)=C([N+](=O)[O-])C1c1ccccc1[S+]([O-])CCCCN1CCN(c2ccccc2OC)CC1 (centres unmarked)")
6.05
>>> reading("COC(=O)C1=C(C)NC(C)=C([N+](=O)[O-])C1c1ccoc1CCCCCN1CCN(C(=O)c2ccco2)CC1 (centres unmarked)")
5.82
>>> reading("CCCOc1cc(N2CCN(CCCCCOc3ccccc3C3C(C(=O)OC)=C(C)NC(C)=C3[N+](=O)[O-])CC2)ncn1 (centres unmarked)")
6.44
>>> reading("CC1=C(C(=O)OCCCCN2CCN(c3ncccn3)CC2)C(c2ccsc2)C([N+](=O)[O-])=C(C)N1 (centres unmarked)")
5.80

The following compounds each have a reported value; give each one's pIC50.
1. CC1=C(C(=O)OCCN2CCN(c3ncccn3)CC2)C(c2ccsc2)C([N+](=O)[O-])=C(C)N1 (centres unmarked)
2. CC1=C(C(=O)OCCN2CCN(c3ncccn3)CC2)C(c2cccnc2)C([N+](=O)[O-])=C(C)N1 (centres unmarked)
3. COc1ccccc1N1CCN(CCOC(=O)C2=C(C)NC(C)=C([N+](=O)[O-])C2c2ccco2)CC1 (centres unmarked)
4. COC(=O)C1=C(C)NC(C)=C([N+](=O)[O-])C1c1ccoc1CCCCCN1CCN(c2ccccc2OC)CC1 (centres unmarked)
5. COC(=O)C1=C(C)NC(C)=C([N+](=O)[O-])C1c1ccccc1OCCCCCN1CCN(c2ccc(OC(C)C)nn2)CC1 (centres unmarked)
6. COC(=O)C1=C(C)NC(C)=C([N+](=O)[O-])C1c1ccccc1OCCCCCN1CCC(c2ccccc2)CC1 (centres unmarked)
7. CC1=C(C(=O)OCCCCN2CCN(c3ncccn3)CC2)C(c2ccco2)C([N+](=O)[O-])=C(C)N1 (centres unmarked)
8. COc1ccccc1N1CCN(CCCCOC(=O)C2=C(C)NC(C)=C([N+](=O)[O-])C2c2ccoc2)CC1 (centres unmarked)

1. 6.02
2. 5.43
3. 5.82
4. 6.22
5. 6.24
6. 6.44
7. 5.70
8. 5.46

* * *

# Tested on: guinea pig left atria
# testDetails: Positive inotropic effect in guinea pig left atria
# cond: Cavia porcellus; ratio of the maximum effect of the test compound to that of Bay K8644; read-out: Intrinsic Activity
attributeMeasured: Emax
Answer format reminder: number followed by unit.

The following compounds each have a reported value; give each one's Emax.
1. CC1=C(C(=O)OCCCCN2CCN(c3ncccn3)CC2)C(c2cccn2C)C([N+](=O)[O-])=C(C)N1 (stereo not shown) [Example 58]
2. COc1ccccc1N1CCN(CCOC(=O)C2=C(C)NC(C)=C([N+](=O)[O-])C2c2ccoc2)CC1 (stereo not shown) [Example 55]
3. COC(=O)C1=C(C)NC(C)=C([N+](=O)[O-])C1c1ccccc1OCCCCCN1CCN(C(=O)C2COc3ccccc3O2)CC1 (stereo not shown) [Example 9]
4. COC(=O)C1=C(C)NC(C)=C([N+](=O)[O-])C1c1ccoc1CCCCCN1CCN(c2ccccc2OC)CC1 (stereo not shown) [Example 1]
5. COC(=O)C1=C(C)NC(C)=C([N+](=O)[O-])C1c1ccccc1OCCCCCN1CCN(c2ccc(Cl)nn2)CC1 (stereo not shown) [Example 7]

1. 195%
2. 169%
3. 62%
4. 188%
5. 149%

The following compounds each have a reported value; give each one's Emax.
1. COC(=O)C1=C(C)NC(C)=C([N+](=O)[O-])C1c1ccccc1OCCCCCN1CCN(C(=O)c2ccco2)CC1 (stereo not shown) [Example 5]
2. CC1=C(C(=O)OCCCCN2CCN(c3ncccn3)CC2)C(c2ccoc2)C([N+](=O)[O-])=C(C)N1 (stereo not shown) [Example 68]
3. COC(=O)C1=C(C)NC(C)=C([N+](=O)[O-])C1c1ccoc1CCCCCN1CCN(C(=O)c2ccco2)CC1 (stereo not shown) [Example 2]
4. COC(=O)C1=C(C)NC(C)=C([N+](=O)[O-])C1c1ccccc1OCCCCCN1CCN(c2ccc(OC(C)C)nn2)CC1 (stereo not shown) [Example 8]
5. COc1ccccc1N1CCN(CCCCOC(=O)C2=C(C)NC(C)=C([N+](=O)[O-])C2c2cccc3nonc23)CC1 (stereo not shown) [Example 51]

["269%", "147%", "144%", "113%", "175%"]

The following compounds each have a reported value; give each one's Emax.
1. CC1=C(C(=O)OCCCCN2CCN(c3ncccn3)CC2)C(c2ccco2)C([N+](=O)[O-])=C(C)N1 (stereo not shown) [Example 70]
2. CC1=C(C(=O)OCCN2CCN(c3ncccn3)CC2)C(c2cccn2C)C([N+](=O)[O-])=C(C)N1 (stereo not shown) [Example 78]
3. COc1ccccc1N1CCN(CCOC(=O)C2=C(C)NC(C)=C([N+](=O)[O-])C2c2cccn2C)CC1 (stereo not shown) [Example 77]

132%
231%
240%
